Below, each entry is listed with its recorded NADPH fluorescence slope.
biological target: Voltage-gated potassium channel subunit beta-2 (Rattus norvegicus) (UniProt P62483); experiment: enhancers of rat Kvbeta2 NADPH turnover – biochemical, NADPH fluorescence, primary screen (AID 623); conditions: Recombinant KvBeta, NADPH fluorescence decrease slope, 10 min; at 10 µM; active compounds read low;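 further: fluorescence intensity change per second fitted from 20 to 320 s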
Sequence (P62483 whole entry, looked up): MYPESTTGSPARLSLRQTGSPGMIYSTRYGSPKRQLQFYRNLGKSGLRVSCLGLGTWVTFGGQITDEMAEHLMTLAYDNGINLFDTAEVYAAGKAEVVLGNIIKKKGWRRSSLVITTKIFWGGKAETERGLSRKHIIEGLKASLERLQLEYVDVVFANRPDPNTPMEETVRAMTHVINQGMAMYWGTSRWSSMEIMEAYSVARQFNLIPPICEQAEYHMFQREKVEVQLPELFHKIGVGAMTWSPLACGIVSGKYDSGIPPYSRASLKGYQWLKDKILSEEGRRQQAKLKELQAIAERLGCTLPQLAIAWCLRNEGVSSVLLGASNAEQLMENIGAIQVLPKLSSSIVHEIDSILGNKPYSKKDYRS
Answer with a bare number; do not write a unit.

Bench note, Voltage-gated potassium channel subunit beta-2 (Rattus norvegicus) (UniProt P62483): "COc1cc(-c2nc(-c3cccc(C(F)(F)F)c3)no2)cc(OC)c1OC" , NADPH fluorescence slope reads -5.5e-05

Bench note, Voltage-gated potassium channel subunit beta-2 (Rattus norvegicus) (UniProt P62483): "CC1CCN(C(=S)c2ccccc2O)CC1" , NADPH fluorescence slope reads -5.2e-05

Bench note, Voltage-gated potassium channel subunit beta-2 (Rattus norvegicus) (UniProt P62483): "COc1cccc(N2CCN(Cc3nc(N)nc(Nc4ccccc4OC)n3)CC2)c1" , NADPH fluorescence slope reads -3.3e-05

Bench note, Voltage-gated potassium channel subunit beta-2 (Rattus norvegicus) (UniProt P62483): "COc1ccc(N(CC(=O)Nc2ccccc2SC)S(C)(=O)=O)cc1OC" , NADPH fluorescence slope reads -9.7e-06

Bench note, Voltage-gated potassium channel subunit beta-2 (Rattus norvegicus) (UniProt P62483): "Cc1cccc(-n2ncc(C#N)c2N)c1" , NADPH fluorescence slope reads -2.8e-06

Bench note, Voltage-gated potassium channel subunit beta-2 (Rattus norvegicus) (UniProt P62483): "O=C(Nc1ccc(N2CCOCC2)cc1)c1cccc(S(=O)(=O)N2CCCC2)c1" , NADPH fluorescence slope reads -3.6e-05

====

target: Voltage-gated potassium channel subunit beta-2 (Rattus norvegicus); assay: enhancers of rat Kvbeta2 NADPH turnover – biochemical, NADPH fluorescence, primary screen (AID 623); settings: Recombinant KvBeta, NADPH fluorescence decrease slope, 10 min; at 10 µM; active compounds read low;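 further: fluorescence intensity change per second fitted from 20 to 320 s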
Value Type: NADPH fluorescence slope
Answer with a bare number; do not write a unit.

{"Compound": "CCOc1ccc(C(CC(=O)O)NC(=O)c2ccco2)cc1OC (stereo not drawn)", "Value Type": "NADPH fluorescence slope", "Endpoint Value": "-3.7e-05"}
{"Compound": "O=C(Cn1nnc(-c2ccncc2)n1)Nc1ccc2c(c1)CCC2", "Value Type": "NADPH fluorescence slope", "Endpoint Value": "-6.3e-05"}
{"Compound": "CC(C(=O)NCc1cccnc1)N1C(=O)c2ccccc2C1=O (stereo not drawn)", "Value Type": "NADPH fluorescence slope", "Endpoint Value": "1.7e-05"}
{"Compound": "CCCc1nn(CCc2ccccn2)c(N)c1CC", "Value Type": "NADPH fluorescence slope", "Endpoint Value": "5.8e-05"}
{"Compound": "Cn1c(SC/C=C/c2ccccc2)nnc1-c1cnccn1", "Value Type": "NADPH fluorescence slope", "Endpoint Value": "2.7e-05"}
{"Compound": "CCn1c(=S)sc2nc(C)sc21", "Value Type": "NADPH fluorescence slope", "Endpoint Value": "3.2e-06"}
{"Compound": "CCOCCCNC(=O)CCNS(=O)(=O)c1ccc(C)cc1", "Value Type": "NADPH fluorescence slope", "Endpoint Value": "-3.1e-05"}
{"Compound": "CCCCc1cc(=O)oc2cc(C)cc(OC(C)C(=O)O)c12 (stereo not drawn)", "Value Type": "NADPH fluorescence slope", "Endpoint Value": "-1e-05"}
{"Compound": "Cc1ccccc1CN1CCNC1=O", "Value Type": "NADPH fluorescence slope", "Endpoint Value": "-4e-05"}
{"Compound": "CCCCCCNS(=O)(=O)c1ccc(Cl)s1", "Value Type": "NADPH fluorescence slope", "Endpoint Value": 0.000132}

Entry CCCNCC(O)COc1ccccc1C(=O)CCc1ccccc1 (stereo not drawn) ; NADPH fluorescence slope = -4.9e-05

Entry "O=C(Nc1ccncc1)c1cncc(Br)c1" ; NADPH fluorescence slope = -9.4e-06

Entry "CN(C)S(=O)(=O)c1ccc(C(=O)Nc2ccccc2C(=O)O)cc1" ; NADPH fluorescence slope = -3.3e-05
